# log10(Ki) listing for each entry below
Target: mu opioid receptor (Rattus norvegicus, UniProt P33535)
Construct: the forebrains were homogenized in Tris buffer in a Teflon®-glass homogenizer; from tissue; host or cells: forebrain of male Wistar rats, particulate (membrane) preparation
Sequence (P33535 whole entry): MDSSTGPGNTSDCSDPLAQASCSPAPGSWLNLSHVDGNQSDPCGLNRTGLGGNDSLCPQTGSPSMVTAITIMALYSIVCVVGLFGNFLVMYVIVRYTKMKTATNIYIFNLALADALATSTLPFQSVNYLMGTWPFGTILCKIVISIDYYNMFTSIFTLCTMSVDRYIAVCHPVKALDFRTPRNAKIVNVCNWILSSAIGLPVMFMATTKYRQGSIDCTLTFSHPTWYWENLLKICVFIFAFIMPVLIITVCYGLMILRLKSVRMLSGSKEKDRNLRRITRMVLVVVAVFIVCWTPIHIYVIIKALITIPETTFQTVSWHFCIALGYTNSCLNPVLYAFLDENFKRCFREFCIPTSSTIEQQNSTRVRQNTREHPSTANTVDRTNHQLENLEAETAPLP
Test: Rat brain mu opioid receptor binding assay
Settings: rat forebrain, [3H]DAMGO ligand; read-out: μ-binding Ki
# values: log10(Ki), units nM

Solved cases (7 shown):
smiles_input: COc1cccc(Oc2nc(-c3cncc(C#N)c3)ncc2NC[C@@H]2CCCN2)c1
log10(Ki): 2.01
--
smiles_input: COc1ccc(Oc2nc(-c3nccs3)ncc2NC[C@@H]2CCCN2)cc1
log10(Ki): 2.94
--
smiles_input: NC(=O)c1ccc(Oc2nc(-c3cccnc3)ncc2NC[C@@H]2CCCN2)cc1
log10(Ki): 3.66
--
smiles_input: COc1ccc(Oc2nc(-c3cncnc3)ncc2NC[C@@H]2C[C@@H](F)CN2)cc1
log10(Ki): 2.03
--
smiles_input: COc1ccc(Oc2nc(-c3ccc4ccccc4c3)ncc2NC[C@@H]2CCCN2)cc1
log10(Ki): 3.95
--
smiles_input: COc1ccc(Oc2nc(-c3cncnc3)ncc2NC[C@@H]2CCCN2)cc1
log10(Ki): 2.33
--
smiles_input: COc1ccc(Oc2nc(-c3ccoc3)ncc2NC[C@@H]2CCCN2)cc1
log10(Ki): 3.30

// query Could you tell me which log10(Ki) is on file for COc1ccc(Oc2nc(-c3cnc(OC)nc3)ncc2NC[C@@H]2CCCN2)cc1 ?
// result 2.77

----------
Biological target: delta opioid receptor (Rattus norvegicus, UniProt P33533)
Construct: the forebrains were homogenized in Tris buffer in a Teflon®-glass homogenizer; from tissue; host or cells: forebrain of male Wistar rats, particulate (membrane) preparation
Sequence (P33533 whole entry): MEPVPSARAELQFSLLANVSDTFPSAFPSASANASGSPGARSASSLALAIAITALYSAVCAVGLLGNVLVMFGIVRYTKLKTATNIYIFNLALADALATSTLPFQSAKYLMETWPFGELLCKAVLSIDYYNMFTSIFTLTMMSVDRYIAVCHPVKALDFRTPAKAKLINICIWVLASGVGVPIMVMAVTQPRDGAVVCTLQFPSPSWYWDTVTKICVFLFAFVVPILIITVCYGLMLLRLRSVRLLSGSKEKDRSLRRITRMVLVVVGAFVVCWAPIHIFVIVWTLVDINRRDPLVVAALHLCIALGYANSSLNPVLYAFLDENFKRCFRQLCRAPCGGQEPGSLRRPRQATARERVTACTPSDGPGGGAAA
Assay: Rat brain delta opioid receptor binding assay
Settings: rat forebrain, [3H]naltrindole ligand; read-out: δ-binding (Naltrindole ligand) Ki
# Ki listing for each entry below

Solved cases (3 shown):
compound: COc1ccc(Oc2nc(-c3ccn[nH]3)ncc2NC[C@@H]2CCCN2)cc1
measured_target: delta opioid receptor (Rattus norvegicus, UniProt P33533)
Ki: 259 nM

compound: COc1ccc(Oc2nc(-c3c(C)noc3C)ncc2NC[C@@H]2CCCN2)cc1
measured_target: delta opioid receptor (Rattus norvegicus, UniProt P33533)
Ki: 544 nM

compound: COc1ccc(Oc2nc(-c3cncnc3)ncc2NC[C@H]2CCCC[C@@H]2N)cc1
measured_target: delta opioid receptor (Rattus norvegicus, UniProt P33533)
Ki: 21 nM

// query Could you tell me which Ki is on file for COc1ccc(Oc2nc(-c3ccc(N)nc3)ncc2NC[C@@H]2CCCN2)cc1 ?
// result 2 nM

// query Likewise for COc1ccc(Oc2nc(-c3cnc4[nH]ccc4c3)ncc2NC[C@@H]2CCCN2)cc1 ?
// result 154 nM

// query Likewise for CC(=O)Nc1ccc(Oc2nc(-c3cccnc3)ncc2NC[C@@H]2CCCN2)cc1 ?
// result 2 nM

----------
Biological target: delta opioid receptor (Mus musculus)
Construct: NG108-15 cell membranes were purchased from Applied Cell Sciences (Rockville, Md.); host or cells: NG108-15 cell membranes
Assay: [35S]GTPγS binding assay in NG108-15 cell membranes (delta opioid functional assay), 200 nM screen
Type: biochemical
Conditions: relative efficacy from dose response; NG108-15 cell membranes
# GTPγS δ-opioid receptor Rel Efficacy listing for each entry below

Solved cases (5 shown):
compound: O=C(Nc1cccc(Oc2nc(-c3cccnc3)ncc2NC[C@@H]2CCCN2)c1)OCc1ccccc1
GTPγS δ-opioid receptor Rel Efficacy: 1.950
--
compound: COc1ccc(Oc2nc(-c3cncc(C)c3)ncc2N[C@H]2CCNC2)cc1
GTPγS δ-opioid receptor Rel Efficacy: 0.830
--
compound: Fc1cncc(-c2ncc(NC[C@@H]3CCCN3)c(Oc3ccc(Cl)cc3)n2)c1
GTPγS δ-opioid receptor Rel Efficacy: 1.144
--
compound: COc1ccc(Oc2nc(-c3cncc(C#N)c3)ncc2N2CC(CN)C2)cc1
GTPγS δ-opioid receptor Rel Efficacy: 0.928
--
compound: COc1ccc(Oc2nc(-c3cncc(SC)c3)ncc2N[C@H]2CCNC2)cc1
GTPγS δ-opioid receptor Rel Efficacy: 0.997

// query Could you tell me which GTPγS δ-opioid receptor Rel Efficacy is on file for COc1ccc(Oc2nc(-c3cncnc3)ncc2NC[C@H]2CCCC[C@@H]2N)cc1 ?
// result 0.968

// query Likewise for COc1ccc(Oc2nc(-c3cccnc3)ncc2NC2CCCC(N)C2)cc1 (single isomer, unassigned) [Cpd 323] ?
// result 0.988

// query Likewise for COc1ccc(Oc2nc(-c3cncc(C)c3)ncc2NC[C@@H]2C[C@@H](F)CN2)cc1 ?
// result 0.966

----------
Molecular target: UniProt:P35372
Sequence (P35372 whole entry, looked up): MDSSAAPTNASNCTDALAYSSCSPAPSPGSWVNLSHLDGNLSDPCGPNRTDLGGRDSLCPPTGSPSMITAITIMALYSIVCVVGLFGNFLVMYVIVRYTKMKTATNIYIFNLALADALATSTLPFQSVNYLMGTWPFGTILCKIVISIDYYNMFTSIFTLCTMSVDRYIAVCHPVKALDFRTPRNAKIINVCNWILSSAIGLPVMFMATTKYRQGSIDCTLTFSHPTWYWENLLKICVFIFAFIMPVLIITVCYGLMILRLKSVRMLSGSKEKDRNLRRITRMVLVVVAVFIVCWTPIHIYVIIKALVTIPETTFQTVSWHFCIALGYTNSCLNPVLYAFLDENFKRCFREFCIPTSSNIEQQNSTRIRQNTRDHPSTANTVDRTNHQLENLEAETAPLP
Assay: [35S]GTPγS binding assays in CHO-hMOR cell membranes (mu opioid functional assay)
Assay type: biochemical
attribute_measured: EC50 (µM)
Numeric answer only, unit µM assumed.

compound: COc1ccc(Oc2nc(-c3cccnc3)ncc2N2CCN[C@H](C)C2)cc1
measured_target: UniProt:P35372
measured: 1.83
--
compound: COc1ccc(Oc2nc(-c3cncc(SC)c3)ncc2NC[C@@H]2CCCN2)cc1
measured_target: UniProt:P35372
measured: 5.1
--
compound: COc1ccc(Oc2nc(-c3cncc(C#N)c3)ncc2NC[C@@H]2CCCN2)cc1F
measured_target: UniProt:P35372
measured: 9.28

// query Could you tell me which EC50 is on file for COc1ccc(Oc2nc(-c3cncc(C#N)c3)ncc2N2CCNC[C@@H]2C)cc1 ?
// result 1.93

// query Likewise for COc1ccc(Oc2nc(-c3cncc(C#N)c3)ncc2NC[C@@H]2C[C@@H](F)CN2)cc1 ?
// result 2.78

// query Likewise for COc1ccc(Oc2nc(-c3cncc(C#N)c3)ncc2N2CCNC(C)C2)cc1 (racemic) ?
// result 1.98

----------
Biological target: delta opioid receptor (Mus musculus, UniProt P32300)
Construct: NG108-15 cell membranes were purchased from Applied Cell Sciences (Rockville, Md.); host or cells: NG108-15 cell membranes
Sequence (P32300 whole entry): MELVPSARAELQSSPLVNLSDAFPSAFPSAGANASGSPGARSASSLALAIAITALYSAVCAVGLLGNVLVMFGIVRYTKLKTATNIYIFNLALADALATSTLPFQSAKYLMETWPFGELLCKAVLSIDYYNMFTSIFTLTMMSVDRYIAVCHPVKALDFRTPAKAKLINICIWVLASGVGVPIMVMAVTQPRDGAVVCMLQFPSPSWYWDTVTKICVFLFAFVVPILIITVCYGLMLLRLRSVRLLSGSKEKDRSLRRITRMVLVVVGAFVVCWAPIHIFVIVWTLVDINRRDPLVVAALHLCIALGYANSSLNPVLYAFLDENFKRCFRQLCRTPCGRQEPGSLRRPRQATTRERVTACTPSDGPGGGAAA
Experiment: [35S]GTPγS binding assay in NG108-15 cell membranes (delta opioid functional assay), 200 nM screen
Assay type: biochemical
Conditions: 200 nM test compound; relative to calculated max of SNC80 dose response curve; NG108-15 cell membranes; averages if tested more than once
Please use rule met whenever GTPγS δ-RelEfficacy @200 nM is not below 0.6, and rule not met whenever it is.

Field: example entries. Status: answers known.
compound: COc1ccc(Oc2nc(-c3cncc(OC)c3)ncc2NCc2cnc[nH]2)cc1
assigned_label: rule not met
--
compound: CSc1ccc(Oc2nc(-c3cncc(C#N)c3)ncc2NC[C@@H]2CCCN2)cc1
assigned_label: rule met
--
compound: COc1ccc(Oc2nc(-c3cccnc3)ncc2N[C@H]2CC[C@@H](N)CC2)cc1
assigned_label: rule met
--
compound: Cc1cc(Oc2nc(-c3cncc(F)c3)ncc2NC[C@@H]2CCCN2)ccc1F
assigned_label: rule not met
--
compound: O=CNc1ccc(Oc2nc(-c3cncc(F)c3)ncc2NC[C@@H]2CCCN2)cc1
assigned_label: rule met

// query Does the compound COc1ccc(Oc2nc(-c3cncc(Cl)c3)ncc2NC[C@@H]2C[C@@H](F)CN2)cc1 have recorded GTPγS δ-RelEfficacy @200 nM that is 0.6 or more?
// result rule met

// query Likewise for CN1CCN(C(=O)c2cccc(Oc3nc(-c4cncc(F)c4)ncc3NC[C@@H]3CCCN3)c2)CC1 ?
// result rule not met

// query Likewise for CSc1ccc(Oc2nc(-c3cncnc3)ncc2NC[C@@H]2CCCN2)cc1 ?
// result rule met

// query Likewise for CCN(CC)C(=O)c1cccc(Oc2nc(-c3cncc(F)c3)ncc2NC[C@@H]2CCCN2)c1 ?
// result rule not met

// query Likewise for N#Cc1cncc(-c2ncc(NC[C@@H]3CCCN3)c(Oc3ccc(Cl)cc3)n2)c1 ?
// result rule met

// query Likewise for COc1ccc(Oc2nc(-c3cncnc3)ncc2NC[C@H]2C[C@H](N)C2)cc1 ?
// result rule not met

// query Likewise for COc1ccc(Oc2nc(-c3cncc(C#N)c3)ncc2N2CCNC(C)C2)cc1 (racemic) ?
// result rule met

----------
Biological target: mu opioid receptor (Rattus norvegicus)
Construct: the forebrains were homogenized in Tris buffer in a Teflon®-glass homogenizer; from tissue; host or cells: forebrain of male Wistar rats, particulate (membrane) preparation
Assay: Rat brain mu opioid receptor binding assay
Settings: rat forebrain, [3H]DAMGO ligand; read-out: μ-binding Ki
attribute_measured: pKi
Scale: negative log10 of molar concentration, which is what pKi denotes.

Solved cases (5 shown):
smiles_input: CCOc1ccc(Oc2nc(-c3cncnc3)ncc2NC[C@@H]2CCCN2)cc1
attribute_measured: pKi
measured: 6.38
//
smiles_input: COc1ccc(Oc2nc(-c3cncc(C#N)c3)ncc2NC[C@H]2CCCC[C@@H]2N)cc1
attribute_measured: pKi
measured: 6.65
//
smiles_input: COc1ccc(Oc2nc(-c3ccc(F)nc3)ncc2NC[C@@H]2CCCN2)cc1
attribute_measured: pKi
measured: 6.21
//
smiles_input: COc1ccc(Oc2nc(-c3cccc(C(F)(F)F)c3)ncc2NC[C@@H]2CCCN2)cc1
attribute_measured: pKi
measured: 6.22
//
smiles_input: COc1ccc(Oc2nc(-c3cccc(NC(C)=O)c3)ncc2NC[C@@H]2CCCN2)cc1
attribute_measured: pKi
measured: 5.91

// query Could you tell me which pKi is on file for COc1ccc(Oc2nc(-c3nc4ccccc4s3)ncc2NC[C@@H]2CCCN2)cc1 ?
// result 5.95

// query Likewise for COc1ccc(Oc2nc(-c3ccc4sc5ccccc5c4c3)ncc2NC[C@@H]2CCCN2)cc1 ?
// result 5.62

The origin of these recorded values is patent US8513271B2.
